From: patent US11471459B2

system: JEKO1; assay: Proliferation MTT assay, 72 h; type: cell-based; details: Homo sapiens, JeKo-1, JEKO1 (MCL), 72 h exposure
OBSERVED PROPERTY: IC50 (µM)
Response body: numeric value in µM, unit text excluded.

Supply measured IC50 of C=CC(=O)N1CCCC(n2c(=O)c3ncccc3n(Cc3ccc(Oc4ccccc4)cc3)c2=O)C1 (stereo not shown) in your reply.
4

###

test system: MCL cell lines; test: Proliferation MTT assay, median per subtype; assay type: cell-based; conditions: MCL cell lines (n=9), 72 h
OBSERVED PROPERTY: IC50 (nM)
Response body: numeric value in nM, unit text excluded.

Supply measured IC50 of C=CC(=O)N1CCCC(n2c(=O)c3ncccc3n(Cc3ccc(Oc4ccccc4)cc3)c2=O)C1 (stereo not shown) [EG-011] in your reply.
1000

###

system: FARAGE; assay: Proliferation MTT assay, 72 h; type: cell-based; details: FARAGE (GCB-DLBCL), 72 h exposure
OBSERVED PROPERTY: IC50 (nM)
Response body: numeric value in nM, unit text excluded.

Supply measured IC50 of C=CC(=O)N1CCCC(n2c(=O)c3ncccc3n(Cc3ccc(Oc4ccccc4)cc3)c2=O)C1 (stereo not shown) in your reply.
2000

###

tested on: JURKAT; assay: Proliferation MTT assay, 72 h; assay type: cell-based; details: Homo sapiens, JURKAT (T Cell Leukemia), 72 h exposure
OBSERVED PROPERTY: IC50
Number first, unit second.

Supply measured IC50 of C=CC(=O)N1CCCC(n2c(=O)c3ncccc3n(Cc3ccc(Oc4ccccc4)cc3)c2=O)C1 (stereo not shown) in your reply.
15 µM

###

tested on: SU-DHL-8; test: Proliferation MTT assay, 72 h; format: cell-based; conditions: Homo sapiens, SU-DHL-8 (GCB-DLBCL), 72 h exposure
OBSERVED PROPERTY: pIC50
Units for pIC50: none; it is -log10 of a concentration expressed in mol/L.

Supply measured pIC50 of C=CC(=O)N1CCCC(n2c(=O)c3ncccc3n(Cc3ccc(Oc4ccccc4)cc3)c2=O)C1 (stereo not shown) in your reply.
6.52

###

system: OCI-LY-8; assay: Proliferation MTT assay, 72 h; assay type: cell-based; details: OCI-Ly8, OCI-LY-8 (GCB-DLBCL), 72 h exposure
OBSERVED PROPERTY: pIC50
Units for pIC50: none; it is -log10 of a concentration expressed in mol/L.

Supply measured pIC50 of C=CC(=O)N1CCCC(n2c(=O)c3ncccc3n(Cc3ccc(Oc4ccccc4)cc3)c2=O)C1 (stereo not shown) in your reply.
6.52

###

test system: PLL cell lines; assay: Proliferation MTT assay, median per subtype; format: cell-based; details: PLL cell lines (n=2), 72 h
OBSERVED PROPERTY: IC50 (µM)
Response body: numeric value in µM, unit text excluded.

Supply measured IC50 of C=CC(=O)N1CCCC(n2c(=O)c3ncccc3n(Cc3ccc(Oc4ccccc4)cc3)c2=O)C1 (stereo not shown) in your reply.
7.5

###

tested on: SP53; experiment: Proliferation MTT assay, 72 h; assay type: cell-based; conditions: SP53 (MCL), 72 h exposure
OBSERVED PROPERTY: IC50 (nM)
Response body: numeric value in nM, unit text excluded.

Supply measured IC50 of C=CC(=O)N1CCCC(n2c(=O)c3ncccc3n(Cc3ccc(Oc4ccccc4)cc3)c2=O)C1 (stereo not shown) in your reply.
1000

###

tested on: SU-DHL-2; assay: Proliferation MTT assay, 72 h; assay type: cell-based; settings: Homo sapiens, SU-DHL-2 (ABC-DLBCL), 72 h exposure
OBSERVED PROPERTY: IC50 (µM)
Response body: numeric value in µM, unit text excluded.

Supply measured IC50 of C=CC(=O)N1CCCC(n2c(=O)c3ncccc3n(Cc3ccc(Oc4ccccc4)cc3)c2=O)C1 (stereo not shown) in your reply.
20

###

system: Z138; test: Proliferation MTT assay, 72 h; assay type: cell-based; conditions: Homo sapiens, Z-138, Z138 (MCL), 72 h exposure
OBSERVED PROPERTY: IC50
Number first, unit second.

Supply measured IC50 of C=CC(=O)N1CCCC(n2c(=O)c3ncccc3n(Cc3ccc(Oc4ccccc4)cc3)c2=O)C1 (stereo not shown) in your reply.
20 µM

###

system: T cell lymphomas (CTCL, PTCL, ALCL) cell lines; test: Proliferation MTT assay, median per subtype; type: cell-based; conditions: 72 h
OBSERVED PROPERTY: IC50 (nM)
Response body: numeric value in nM, unit text excluded.

Supply measured IC50 of C=CC(=O)N1CCCC(n2c(=O)c3ncccc3n(Cc3ccc(Oc4ccccc4)cc3)c2=O)C1 (stereo not shown) in your reply.
2500

###

system: SU-DHL-10; assay: Proliferation MTT assay, 72 h; assay type: cell-based; conditions: Homo sapiens, SU-DHL10, SU-DHL-10 (GCB-DLBCL), 72 h exposure
OBSERVED PROPERTY: pIC50
Units for pIC50: none; it is -log10 of a concentration expressed in mol/L.

Supply measured pIC50 of C=CC(=O)N1CCCC(n2c(=O)c3ncccc3n(Cc3ccc(Oc4ccccc4)cc3)c2=O)C1 (stereo not shown) [EG-011] in your reply.
6.52

###

system: OCI-LY-1; test: Proliferation MTT assay, 72 h; format: cell-based; settings: Homo sapiens, OCI-Ly1, OCI-LY-1 (GCB-DLBCL), 72 h exposure
OBSERVED PROPERTY: IC50

Supply measured IC50 of C=CC(=O)N1CCCC(n2c(=O)c3ncccc3n(Cc3ccc(Oc4ccccc4)cc3)c2=O)C1 (stereo not shown) [EG-011] in your reply.
250 nM
